tested on: PPARg DBDmut IVT, anti-PPARg (DBD mutation: PPARg1 K132A/R137A, NR concentration 270 nM); assay: PBM binding z-score (relative to random genomic background probes); higher = stronger binding; sequences stand for … in GC…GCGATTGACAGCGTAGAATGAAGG
recorded-metric: PBM binding z-score

Items follow; give PBM binding z-score for each.
1. ATATGTAGGTTAAGGGTCCTTCAGGTTGGTTCGC
2. CGGACTGGGGCATAAGGTTACCATAAGCCAGCCC
3. TCTATTAGTTGAAGGGCAACCGGCGAGTCCGTTT
4. CCTTACGGGTCACTCCAGGTTAGAGCATCGGAGT
5. CCTTACGGGTCACCAGGTTATAGCACGACGAGCG

Completion:
1: 0.916; 2: 1.32; 3: 0.729; 4: -0.0184; 5: -0.404

Items follow; give PBM binding z-score for each.
1. CCGACTGGGGCATAAGGTTACAATAAGCCAGCCC
2. CATACTGGGCCATTCAGAGGTCATTGATCATATG
3. TCTTGTAGATCAGCAGGTCAAGAAAGCTGGCCAA
4. CCTAGCTGGTCAAGGTCACACACGCTATAGGTAC
5. CCTCGGAGGACAACAGGAGGACAGAGCTGCCAGA
6. TAGTCTAGGTCATTGGGCCAGTATAGTACGCATC
7. AGTCAAAGTTCACTAGGTATCGTAAGATTCAGCT

Completion:
-1.42
0.509
-0.699
0.076
-1.93
2.94
1.1

Items follow; give PBM binding z-score for each.
1. TCTTGTAGATCAGCAGGTGAAGAAAGCTGGCCAA
2. GCTGCTAAGTCAGGTTGGTCAGCTAACGGGTACG

Completion:
-0.252
-1.03

====

tested on: PPARg:RXRa IVT, anti-PPARg (NR concentration 270 nM, RXRa partner concentration 90 nM); test: PBM binding z-score (relative to random genomic background probes); higher = stronger binding; sequences stand for … in GC…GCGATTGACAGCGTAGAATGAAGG
Rule: 1 for PBM binding z-score not less than 4, 0 for anything less.

Use these answered entries as a reference point.
construct-sequence	classification
ACTTACGGGTCAAAGAGGTTATAGCACGCGTATA	0
CCTACTGGGCCACGAAAGATCATTGATTCAGTGA	1
CCTGCTAGGTCATGGTCGGCTAATCTACAGTATG	0

Prompt: Would you say TCATATAGCTAAAAGGTGAAAGTCGGTGTGGTAA shows PBM binding z-score at minimum 4?
Completion: 0

Prompt: Would you say CGAGACAGGTGAAAGGTAACTCAGTCTGGTACGC shows PBM binding z-score at minimum 4?
Completion: 0

Prompt: Would you say GCGACCGGGGCATCAGCAGGTTACCATAACTTAA shows PBM binding z-score at minimum 4?
Completion: 0

Prompt: Would you say TAGGCTAGGTCATGCGGGCCAGTATAGTGTCGGC shows PBM binding z-score at minimum 4?
Completion: 0

Prompt: Would you say ATACGTAGGTTAAGGGTCATTCAGGTTGGTTCGC shows PBM binding z-score at minimum 4?
Completion: 0

====

I'd appreciate it if you could supply PBM binding z-score values for the items below.
tested on: THRa:RXRa (NR concentration 90 nM, RXRa partner concentration 90 nM); assay: PBM binding z-score (relative to random genomic background probes); higher = stronger binding; sequences stand for … in GC…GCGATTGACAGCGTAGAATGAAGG
Numbers only.

Worked cases, answers included:
construct-sequence	PBM binding z-score
CGAACTAGGTCATTGCCAGGACAGTGAATAGTAA	3.32
CCTGCTAGGTCATGGTCAGCTAATCTACAGTATG	3.06
AGAACGAGGGCAATGAGTTGATCGCACGGGTGGC	1.14
GCTCTTAGTTGAAAGGGCAACCGAATGATTCTCG	0.622

Items follow; give PBM binding z-score for each.
1. CGTCCAAGGTCAAGGTCAGGGAAAGAGACTCGAA
2. CCTACTGGGCCACGAAAGGTCAGTGATTCAGTGA
3. GGAACGAGGGCAAGTTGATATCAGAGTTTGATGG
4. GCTAGTTCGTCAGTAAAAGGTCACACACCGGTCG
5. CCTGCTAGGTCAATGGTCAGCTAGAGCAGCTCGC
6. GGAACGAAGGCAAGTTGATAGCAGAGTTTGATGG

Completion:
4.53
3.1
1.46
3.72
2.33
-0.824

Items follow; give PBM binding z-score for each.
1. AATCAAAGTTCAGGACGAGGTAACGTAAAGCACG
2. ACTAGCCGGCCAAGTTTGGGTCACTCAAACAAAG

Completion:
1. 3.92
2. 2.15

====

tested on: RXRa homodimer (NR concentration 180 nM); assay: PBM binding z-score (relative to random genomic background probes); higher = stronger binding; sequences stand for … in GC…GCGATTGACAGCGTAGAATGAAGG
recorded-metric: PBM binding z-score
Give bare numbers.

Worked cases, answers included:
construct-sequence	target-system	PBM binding z-score
ATCTCTAGGTAAAAGGTCAGTGAATCCCGAGGAT	RXRa homodimer (NR concentration 180 nM)	4.83
ATATGTAGGTTATCGGGTCATTCACTTTGCGCAT	RXRa homodimer (NR concentration 180 nM)	3.56
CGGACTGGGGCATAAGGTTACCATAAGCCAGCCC	RXRa homodimer (NR concentration 180 nM)	1.29
TATACAGGGTCCAAGGCCAGAGTACGAATGTCGA	RXRa homodimer (NR concentration 180 nM)	0.823
TTACCAAGGTGAAGGGCGTTGATCCCTCTGTAGA	RXRa homodimer (NR concentration 180 nM)	0.755

Items follow; give PBM binding z-score for each.
1. TCATATAGGTAAATGCCAGGTGAAAGTCCGATCT
2. TAGCCTAGGTCATTCAGGGGCCCGTATAGAAAGC
3. CAAACTAGGACAAGAGGTCAAAGTCCGCTTCCCG
4. ATCTCTAGGTAACACTCAGTTCAGTGAAGAACGC
5. CGAACTAGGTCATTGACAGTACAGTGAATAGTAA
6. ACTATTATTTGACTTAGGGCAACCGATACGACGC
7. TCTTGTAGATCAATAGACGTTAAGAAAGTGCGCT

Completion:
1. 0.912
2. 2.77
3. 6.3
4. 0.63
5. 2.48
6. 0.818
7. -0.042

====

tested on: FXR:RXRa (NR concentration 270 nM, RXRa partner concentration 90 nM); experiment: PBM binding z-score (relative to random genomic background probes); higher = stronger binding; sequences stand for … in GC…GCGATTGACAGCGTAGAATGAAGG
Rule: T for PBM binding z-score not less than 0.8, F for anything less.

construct-sequence	target-system	classification
TTACCACGGTGAAGGTCGTTGATCCCTCTGTAGA	FXR:RXRa (NR concentration 270 nM, RXRa partner concentration 90 nM)	T
TCATATGGGTAAAGGTGAAAGTCGAACGATATGA	FXR:RXRa (NR concentration 270 nM, RXRa partner concentration 90 nM)	F
CGTGCAAGGTCAATGCTAGGTCAGTGAAAGCATT	FXR:RXRa (NR concentration 270 nM, RXRa partner concentration 90 nM)	T
GCTAGTTGGTCAGTAAAAGGTCACACTCCGGTCG	FXR:RXRa (NR concentration 270 nM, RXRa partner concentration 90 nM)	T
ACTATTGGTTGAGACGAGGGCAACCGATAGGTTG	FXR:RXRa (NR concentration 270 nM, RXRa partner concentration 90 nM)	F

Read the next record carefully.
Prompt: Would you say CCTCGGAGGACAGAAGGTCAGAGCGGTCCGCTTT shows PBM binding z-score at minimum 0.8?
Completion: T

====

test system: THRa:RXRa (NR concentration 90 nM, RXRa partner concentration 90 nM); experiment: PBM binding z-score (relative to random genomic background probes); higher = stronger binding; sequences stand for … in GC…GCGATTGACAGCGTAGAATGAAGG
I'd appreciate it if you could supply PBM binding z-score values for the items below.
One number for each entry.

construct-sequence	PBM binding z-score
TCGAGTAGGTTAGGGGCATCCAGAATGGCGTCGA	1.05
AGAACGACGGCAATGAGTTGATAGCACGGGTGGC	-0.626
TCATATAGGTTAACAGGTGAAAGTCCGTAAGTTA	1.39
GCTAGCAGGCCATTTGTGTCACTCAATGACGGGC	-0.583
CATACAGGATCAGCTAGGCCAGAGTAGGGACGGC	-0.122

Items follow; give PBM binding z-score for each.
1. CTCGAAAGGTAGGTTGAGGTGAGTATACGGATAA
2. ACAGAAAGGTGATGAAGGTAACTCAGGCTATCAT
3. TCTCGGAGGACACGAAAGCTCAGAGCTCGACATC
4. CAAACTAGGACACAGAGGTCAAAGTCCGTGCGTA
5. CGTCCAAGGTCAGAGAGATCAGTGAATGCCGAGT
6. CTCGAAAGGTCGTGCTCAGGTGTGTATACCAAAC
7. TAGCCTAGGTCATTGGGCCAGCATAGTACGCATC

Completion:
3.9
1.44
1.23
4.36
3.31
3
2.76

Reference source: the supplement of paper PMC6555819
